B1: TPR t1 (parent)
chain: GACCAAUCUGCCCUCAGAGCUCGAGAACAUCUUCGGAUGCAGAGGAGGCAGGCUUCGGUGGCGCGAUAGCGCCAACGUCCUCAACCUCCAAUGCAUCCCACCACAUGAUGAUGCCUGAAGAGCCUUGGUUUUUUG

variants of: B1; assay: polymerase ribozyme fitness, log enrichment relative to wild type (log ratio); higher = more active; in vitro selection for triplet polymerase activity
So I've got a bunch of variants here, and I need their polymerase ribozyme fitness (log ratio) values.
In your answer, state the number alone without any accompanying words.

Quick one: give measured polymerase ribozyme fitness (log ratio) for C13G G71A G128U
-4.42

Quick one: give measured polymerase ribozyme fitness (log ratio) for G23A C56U G58C C70U C104G G122A
-7.86

Quick one: give measured polymerase ribozyme fitness (log ratio) for C53U U54G G117A
-0.796

Quick one: give measured polymerase ribozyme fitness (log ratio) for C12G A16G C53A C80U
-5.01

Quick one: give measured polymerase ribozyme fitness (log ratio) for A2U A5U A27G C53G U87G
-4.56

Quick one: give measured polymerase ribozyme fitness (log ratio) for A50G U55G C79G A91C U109A
-6.64

Quick one: give measured polymerase ribozyme fitness (log ratio) for U14C C31G U33G G65U A95U G117U
-7.34

Quick one: give measured polymerase ribozyme fitness (log ratio) for G19A G60A
-1.41

Quick one: give measured polymerase ribozyme fitness (log ratio) for A16U G117C G120A
-4.52

Quick one: give measured polymerase ribozyme fitness (log ratio) for G77C U125C
-3.91

Quick one: give measured polymerase ribozyme fitness (log ratio) for G35A G63C G71U C114A
-6.69

Quick one: give measured polymerase ribozyme fitness (log ratio) for G57U G61C U92C
-2.88

Quick one: give measured polymerase ribozyme fitness (log ratio) for G60C A121U U125G U129G
-0.914

Quick one: give measured polymerase ribozyme fitness (log ratio) for G47U C56U A95U
-1.34

Quick one: give measured polymerase ribozyme fitness (log ratio) for C4G U9A U112G G117U
-2.18

Quick one: give measured polymerase ribozyme fitness (log ratio) for C11G G42A A121C
0.0348

Quick one: give measured polymerase ribozyme fitness (log ratio) for C53U G93A A105C G117U
-6.56

Quick one: give measured polymerase ribozyme fitness (log ratio) for U55G C88G
-0.483

Quick one: give measured polymerase ribozyme fitness (log ratio) for C56G G120C
0.755

Quick one: give measured polymerase ribozyme fitness (log ratio) for C4G A50U G61U
-2.2

Quick one: give measured polymerase ribozyme fitness (log ratio) for C56G C70A A118U
-2.37

Quick one: give measured polymerase ribozyme fitness (log ratio) for U59A A66C C124A
0.00699

Quick one: give measured polymerase ribozyme fitness (log ratio) for U106A U125A
-0.469

Quick one: give measured polymerase ribozyme fitness (log ratio) for C20U C72U G120C
-1.44

Quick one: give measured polymerase ribozyme fitness (log ratio) for G42A A46U G48A G63A A118U
-3.82

Quick one: give measured polymerase ribozyme fitness (log ratio) for C94A C115U
-2.44

Quick one: give measured polymerase ribozyme fitness (log ratio) for G69A G120A
-1.48

Quick one: give measured polymerase ribozyme fitness (log ratio) for C34U C124U
-2.06

Quick one: give measured polymerase ribozyme fitness (log ratio) for G61U G110C
-2.85

Quick one: give measured polymerase ribozyme fitness (log ratio) for U9C C40U U112G
0.239

Quick one: give measured polymerase ribozyme fitness (log ratio) for U92A A108U U112C G113A A121G
-6.52

Quick one: give measured polymerase ribozyme fitness (log ratio) for C53A G71C C86A C124A
-2.54

Quick one: give measured polymerase ribozyme fitness (log ratio) for U87C A105G
-1.78

Quick one: give measured polymerase ribozyme fitness (log ratio) for G36U G60A C94U
-1.8

Quick one: give measured polymerase ribozyme fitness (log ratio) for C15G C72U
-3.01

Quick one: give measured polymerase ribozyme fitness (log ratio) for G35A G45C G71C G77C C104U C114G
-5.08

Quick one: give measured polymerase ribozyme fitness (log ratio) for A37C A68G
-2.51

Quick one: give measured polymerase ribozyme fitness (log ratio) for C15G A37U A66G C123A
-3.27

Quick one: give measured polymerase ribozyme fitness (log ratio) for G63C U78G C98U
-2.14

Quick one: give measured polymerase ribozyme fitness (log ratio) for C98A C99A
-6.47

Quick one: give measured polymerase ribozyme fitness (log ratio) for C79G C89A
-5.03

Quick one: give measured polymerase ribozyme fitness (log ratio) for U116G C124A
0.803

Quick one: give measured polymerase ribozyme fitness (log ratio) for A50C U78G G110C G120A C124U
-4.98

Quick one: give measured polymerase ribozyme fitness (log ratio) for G36C U78C A95C
-2.98

Quick one: give measured polymerase ribozyme fitness (log ratio) for C12G C124A
1.61

Quick one: give measured polymerase ribozyme fitness (log ratio) for A43U C86U
-2.52

Quick one: give measured polymerase ribozyme fitness (log ratio) for C34A C80U
-4.3

Quick one: give measured polymerase ribozyme fitness (log ratio) for C28G A41C C64U C115A
-2.93

Quick one: give measured polymerase ribozyme fitness (log ratio) for G58C G93A C114U
-3.02

Quick one: give measured polymerase ribozyme fitness (log ratio) for U54G C56U A121G C124A
-4.56

Quick one: give measured polymerase ribozyme fitness (log ratio) for C53U C124A G128C
-0.772

Quick one: give measured polymerase ribozyme fitness (log ratio) for G60A C88U G127A
-1.7

Quick one: give measured polymerase ribozyme fitness (log ratio) for C8G C82A C97A
-4.13

Quick one: give measured polymerase ribozyme fitness (log ratio) for G61A G107A
-3.6

Quick one: give measured polymerase ribozyme fitness (log ratio) for C22U C53G
-4.85

Quick one: give measured polymerase ribozyme fitness (log ratio) for U21G G47A A100C U109A U112C A119G
-7.27

Quick one: give measured polymerase ribozyme fitness (log ratio) for G47A G60A C85G C123U
-3.19

Quick one: give measured polymerase ribozyme fitness (log ratio) for C34A G35U G48C
-3.95

Quick one: give measured polymerase ribozyme fitness (log ratio) for C22G C73A G93A
-4.3

Quick one: give measured polymerase ribozyme fitness (log ratio) for A43G C115A G135C
-3.27

Quick one: give measured polymerase ribozyme fitness (log ratio) for A5C C12G C114G
-5.39

Quick one: give measured polymerase ribozyme fitness (log ratio) for C8G G17U A26U G120U
-2.91

Quick one: give measured polymerase ribozyme fitness (log ratio) for A105C U129A
-4.21

Quick one: give measured polymerase ribozyme fitness (log ratio) for A27G G45U A46C C49U C124A G128A
-5.34

Quick one: give measured polymerase ribozyme fitness (log ratio) for U21C A50U C70U C99U A111U
-7.45

Recorded values, source the RNAGym collection of RNA variant scans (doi:10.1073/pnas.2313332121).
